target: BACE1 (HTRF long substrate and FRET short substrate assays of Example 9D); assay: cell-based or functional assay
Quick reference: EC50, HTRF long substrate of the listed items.
Give your result in nM as a bare value.

Binder | EC50, HTRF long substrate [nM]
5876 (antibody, V domains shown, anti-BACE1 IgG) VH: EVQLLESGGGLVQPGGSLRLSCAASGFTFSSRAMGWVRQAPGKGLEWVSATSGSGGSIYYADSVKGRFTISRDNSKNTLYLQMNSLRAEDTAVYYCAKGGSQWLYAPGSWFDPWGQGTLVTVSS VL: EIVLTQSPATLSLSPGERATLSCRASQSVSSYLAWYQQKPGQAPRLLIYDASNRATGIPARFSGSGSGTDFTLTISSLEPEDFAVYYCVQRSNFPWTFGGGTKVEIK | 1.67

Query string: Data request, read-out EC50, HTRF long substrate, for 5874 (antibody, V domains shown, anti-BACE1 IgG) VH: EVQLLESGGGLVQPGGSLRLSCAASGFTFGSYAMSWVRQAPGKGLEWVSATSGSGGSTYYADSVKGRFTISRDNSKNTLYLQMDSLRAEDTAVYYCAKGGSQWLYAPGSWFDPWGQGTLVTVSS VL: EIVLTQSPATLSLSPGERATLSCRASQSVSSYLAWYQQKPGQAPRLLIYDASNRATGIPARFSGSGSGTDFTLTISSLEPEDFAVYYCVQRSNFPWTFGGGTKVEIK
Result string: 3.97

Query string: Again, but for 5887 (antibody, V domains shown, anti-BACE1 IgG) VH: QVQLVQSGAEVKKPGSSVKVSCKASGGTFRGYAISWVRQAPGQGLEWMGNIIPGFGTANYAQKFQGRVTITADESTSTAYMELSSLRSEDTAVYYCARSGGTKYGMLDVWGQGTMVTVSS VL: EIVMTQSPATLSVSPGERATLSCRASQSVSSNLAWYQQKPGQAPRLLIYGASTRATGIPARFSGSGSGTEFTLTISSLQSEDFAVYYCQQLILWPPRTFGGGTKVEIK
Result string: 5.5
